System: 67LR forced expression cells (A549)
assay.notes: Cell growth test (cell count, Tripanblue staining) on 67LR transient expression A549 cells
Type: cell-based, human
conditions.used: 5 μM, 0.5 μg pTARGET-hLamininR in A549 cells, 48 hours
property.measured: number of the cells / growth inhibiting effect (influence of 67LR gene introduction)

- compound: "O=c1c(O)c(-c2ccc(O)c(O)c2)oc2cc(O)cc(O)c12 [quercetin]"
  target.under.test: "67LR forced expression cells (A549)"
  measured.value: "no influence"
- compound: "Oc1cc(O)c2c(c1)O[C@H](c1cc(O)c(O)c(O)c1)[C@H](O)C2 [EGC, epigallocatechin]"
  target.under.test: "67LR forced expression cells (A549)"
  measured.value: "no influence"
- compound: "Cn1c(=O)c2c(ncn2C)n(C)c1=O [caffeine, Caffeine]"
  target.under.test: "67LR forced expression cells (A549)"
  measured.value: "no influence"

###

target.under.test: 67LR forced expression cells (A549 with 67LR expression vector) (Homo sapiens)
Construct: expressed in transfected cells; host or cells: A549 cells, transient transfection with pTARGET-hLamininR (FuGENE 6)
assay.notes: Binding to 67LR forced expression cells by surface plasmon resonance sensor
conditions.used: surface plasmon resonance biosensor, 5 μM
property.measured: change of cell binding in 67LR forced expression cells

The cases that follow already have their change of cell binding in 67LR forced expression cells on record.
- molecule: "O=c1c(O)c(-c2ccc(O)c(O)c2)oc2cc(O)cc(O)c12"
  target.under.test: "67LR forced expression cells (A549 with 67LR expression vector) (Homo sapiens)"
  measured.value: "no change"
- molecule: "COc1cc(C(=O)O[C@@H]2Cc3c(O)cc(O)cc3O[C@@H]2c2cc(O)c(O)c(O)c2)cc(O)c1O [EGCG3″Me, epigallocatechin-3-(3-O-methyl)-gallate]"
  target.under.test: "67LR forced expression cells (A549 with 67LR expression vector) (Homo sapiens)"
  measured.value: "cell binding increased"
- molecule: "Oc1cc(O)c2c(c1)O[C@H](c1cc(O)c(O)c(O)c1)[C@H](O)C2 [EGC, epigallocatechin]"
  target.under.test: "67LR forced expression cells (A549 with 67LR expression vector) (Homo sapiens)"
  measured.value: "no change"
- molecule: "Cn1c(=O)c2c(ncn2C)n(C)c1=O"
  target.under.test: "67LR forced expression cells (A549 with 67LR expression vector) (Homo sapiens)"
  measured.value: "no change"

Returns the measured change of cell binding in 67LR forced expression cells for the input molecule. Input: O=C(O[C@@H]1Cc2c(O)cc(O)cc2O[C@@H]1c1ccc(O)c(O)c1)c1cc(O)c(O)c(O)c1 [ECG, epicatechin-3-O-gallate]
cell binding increased
